- TEST: Therapeutic Index (IC50/EC50)
Field: log10 of TI. Provide a value for each of the compounds that follow.
All values: base-10 log of TI in Ratio.

Use these answered entries as a reference point.
# input Returns the measured log10 of TI for the input compound. Input: CCCc1cc(=O)oc2c(C(=O)[C@H](C)[C@H](C)O)c(O)c3c(c12)OC(C)(C)C=C3 (racemic)
# output 0.59

# input Returns the measured log10 of TI for the input compound. Input: CCCc1cc(=O)oc2c3c(c4c(c12)OC(C)(C)C=C4)O[C@H](C)C(C)(C)[C@H]3O (racemic)
# output 0.79

# input Returns the measured log10 of TI for the input compound. Input: CCCc1cc(=O)oc2c3c(c4c(c12)OC(C)(C)C=C4)O[C@H](C)[C@@H](C)C3=O (racemic)
# output 1.20

# input Returns the measured log10 of TI for the input compound. Input: CCCc1cc(=O)oc2c3c(c4c(c12)OC(C)(C)C=C4)O[C@H](C)[C@@H](C)[C@@H]3O [CALANOLIDE A]
# output 1.93

# input Returns the measured log10 of TI for the input compound. Input: CCCc1cc(=O)oc2c3c(c4c(c12)OC(C)(C)C=C4)O[C@H](C)[C@H](C)C3=O (racemic)
# output 0.63

# input Returns the measured log10 of TI for the input compound. Input: CCCc1cc(=O)oc2c3c(c4c(c12)OC(C)(C)C=C4)O[C@H](CC)[C@@H](C)[C@@H]3O (racemic)
# output 0.95

# context switch: different compound, same log10 of TI
# input Returns the measured log10 of TI for the input compound. Input: CCCc1cc(=O)oc2c3c(c4c(c12)OC(C)(C)C=C4)O[C@H](C)[C@@H](C)[C@@H]3O (racemic) [CALANOLIDE A]
# output 1.67

====

Field: pEC50. Provide a value for each of the compounds that follow.
- MEASURED_TARGET: Human immunodeficiency virus type 1 reverse transcriptase (Human immunodeficiency virus 1)
- TEST: Inhibition of HIV-1 reverse transcriptase using a poly(rC):oligo(dG)12-18 template primer
One number for each entry, as −log10 of the molar value.

Use these answered entries as a reference point.
# input Returns the measured pEC50 for the input compound. Input: CCCc1cc(=O)oc2c3c(c4c(c12)OC(C)(C)C=C4)OC(C)(C)[C@H](C)[C@H]3O (racemic)
# output 5.30

# input Returns the measured pEC50 for the input compound. Input: CCCc1cc(=O)oc2c3c(c4c(c12)OC(C)(C)C=C4)O[C@H](C)[C@@H](C)C3=O (racemic)
# output 4.40

# input Returns the measured pEC50 for the input compound. Input: CCCc1cc(=O)oc2c3c(c4c(c12)OC(C)(C)C=C4)O[C@H](CC)[C@@H](C)[C@@H]3O (racemic)
# output 5.49

# context switch: different compound, same pEC50
# input Returns the measured pEC50 for the input compound. Input: CCCc1cc(=O)oc2c3c(c4c(c12)OC(C)(C)C=C4)O[C@H](C)[C@@H](C)[C@@H]3O [CALANOLIDE A]
# output 6.49

====

Field: EC50. Provide a value for each of the compounds that follow.
- MEASURED_TARGET: Human immunodeficiency virus type 1 reverse transcriptase (Human immunodeficiency virus 1, UniProt Q72547)
- TEST: Inhibition of HIV-1 reverse transcriptase using a poly(rC):oligo(dG)12-18 template primer
One number for each entry, in µM.

Use these answered entries as a reference point.
# input Returns the measured EC50 for the input compound. Input: CCCc1cc(=O)oc2c3c(c4c(c12)OC(C)(C)C=C4)OC[C@H](C)[C@@H]3O (racemic)
# output 50

# input Returns the measured EC50 for the input compound. Input: CCCc1cc(=O)oc2c3c(c4c(c12)OC(C)(C)C=C4)O[C@H](C)C(C)(C)[C@H]3O (racemic)
# output 32

# input Returns the measured EC50 for the input compound. Input: CCCc1cc(=O)oc2c3c(c4c(c12)OC(C)(C)C=C4)O[C@H](C)[C@@H](C)[C@@H]3O (racemic) [CALANOLIDE A]
# output 0.97

# context switch: different compound, same EC50
# input Returns the measured EC50 for the input compound. Input: CCCc1cc(=O)oc2c3c(c4c(c12)OC(C)(C)C=C4)O[C@H](CC)[C@@H](C)[C@H]3O (racemic)
# output 2
